# protocol_description: Cytotoxic Profiling in HEK 293 Cell Line of Diverse Libraries Using Quantitative High-Throughput Screening; further: nearly all actives have a fitted effect of over 60% in size
# reported_conditions: HEK 293 viability, ATP luminescence (CellTiter-Glo), 48-72 h; series mostly up to 115 µM
Screen size: about 94,000 compounds; about 6,200 (6.6%) were called active. Inconclusive results (about 31%) are left out. The call rests on the fitted dose curve; in most records, active means well fitted inhibition curve with a large enough effect; inconclusive means small, poorly fitted or top-dose-only effect; inactive means flat fitted curve, though single readings scatter. The list comes from a sample in which actives are over-represented; it also holds close analogues and randomly drawn compounds.
Answer with one of the outcomes 1.0 (active), 0.0 (inactive)

These recorded examples may help you get a feel for the data.
[[record]]
compound = "CCCCOC(=O)N1C[C@H](C(=O)OCC)[C@H]2c3ccccc3N(C)C(=O)[C@]21C"
cat = 0.0

[[record]]
compound = "O=S1(=O)NCC2(CCN(Cc3ccc(Cl)s3)C2)Oc2ncccc21 (stereo unspecified)"
cat = 0.0

[[record]]
compound = "O=[S+]1([O-])NC2(CCN(CC3CCOCC3)C2)COc2ccncc21 (stereo unspecified)"
cat = 0.0

[[record]]
compound = "CC(C)N1CC2CCC(C1)N2C(=O)N1CCCC1"
cat = 0.0

[[record]]
compound = "COc1cc2c(cc1OCc1ccccc1)NC(=O)C21CCN(C(=O)C(C)C)CC1"
cat = 1.0

[[record]]
compound = "CC(C)C(=O)N1CCC2(CC1)NCc1ccccc1-n1ccnc12"
cat = 0.0

[[record]]
compound = "O=C([C@H]1CN2CCC1C[C@@H]2Cn1cc(CCO)nn1)N1CCCC1 (stereo partly specified)"
cat = 0.0

[[record]]
compound = "CNC(C)c1ccc(Cl)cc1 (stereo unspecified)"
cat = 0.0


*Q* Assay result, entry C#CCN1C(=O)[C@@H]2[C@H](c3ccccc31)[C@@H](C(=O)OCC)[C@@H](c1ccccc1)N2C(=O)COC — outcome?
*A* 1.0

*Q* Assay result, entry C=CCOc1c(Cl)cc(CNC(C)Cn2cccn2)cc1OC (stereo unspecified) — outcome?
*A* 0.0

*Q* Assay result, entry CN(C)[C@@H]1CN(C(=O)Cc2ccc(F)cc2)C[C@H]1CO — outcome?
*A* 0.0

====

# protocol_description: Cytotoxic Profiling in HEK 293 Cell Line of Diverse Libraries Using Quantitative High-Throughput Screening; further: nearly all actives have a fitted effect of over 60% in size; further: potency means the concentration at half of the fitted maximal effect
# reported_conditions: HEK 293 viability, ATP luminescence (CellTiter-Glo), 48-72 h; series mostly up to 115 µM
Among all 94,000 compounds or so, about 6,200 (6.6%) were called active. Not shown: some 31% with an inconclusive outcome. Shown is part of a subset that was picked to be rich in actives.
measurement_name: Potency

[[record]]
chemical_string = "Cc1ccccc1-c1ccc2n(c1=O)C[C@H]1C[C@@H]2CN(C(=O)CSCC(=O)O)C1"
val = "inactive"

[[record]]
chemical_string = "C[S+](=O)([O-])N1CCC2(CC1)CC(c1cccnc1)=NO2"
val = "inactive"

[[record]]
chemical_string = "COc1cc2c(cc1OCc1ccncc1)NC(=O)C21CCN(c2ncc(F)cn2)CC1"
val = "50.1 µM (active)"

[[record]]
chemical_string = "COc1cc2c(cc1Oc1ccccc1)NC(=O)C21CCN(c2ccnc(C)n2)CC1"
val = "63.1 µM (active)"


====

# protocol_description: Cytotoxic Profiling in HEK 293 Cell Line of Diverse Libraries Using Quantitative High-Throughput Screening; further: nearly all actives have a fitted effect of over 60% in size
# reported_conditions: HEK 293 viability, ATP luminescence (CellTiter-Glo), 48-72 h; series mostly up to 115 µM
About 6,200 (6.6%) of roughly 94,000 compounds were called active. Inconclusive results (about 31%) are left out. The call rests on the fitted dose curve; in most records, active means well fitted inhibition curve with a large enough effect; inconclusive means small, poorly fitted or top-dose-only effect; inactive means flat fitted curve, though single readings scatter. The list comes from a sample in which actives are over-represented; it also holds close analogues and randomly drawn compounds.
Answer with one of the outcomes active, inactive

These recorded examples may help you get a feel for the data.
[[record]]
compound = "CC(C)N1C[C@@H]2OCC(=O)N(Cc3cccnc3)[C@@H]2C1"
cat = "inactive"

[[record]]
compound = "CCC(CC)c1cc([C@H]2CN3CC[C@H]2C[C@@H]3CNC(=O)NCc2ccccc2)nc(-c2ccncc2)n1"
cat = "active"

[[record]]
compound = "O=C(Nc1ccc(Cl)cc1)N1C[C@@H]2C[C@H](C1)c1c(-c3ccccc3F)ccc(=O)n1C2"
cat = "inactive"

[[record]]
compound = "CC(=O)NCCNC(=O)[C@H]1CN2CCC1C[C@@H]2Cn1cc(-c2ccc(C(C)(C)C)cc2)nn1 (stereo not given in full)"
cat = "inactive"

[[record]]
compound = "COc1ccccc1-c1cc([C@H]2CN3CC[C@H]2C[C@@H]3CNC(C)=O)n(C)n1"
cat = "inactive"

[[record]]
compound = "CCNC(=O)N1CC2CN(C(C)C)CC(C1)O2"
cat = "inactive"

[[record]]
compound = "O=C1NC2(Cc3ccccc31)CN(Cc1ccncc1)C2"
cat = "inactive"

[[record]]
compound = "CC(C)NC(=O)NC[C@H]1C[C@@H]2CCN1C[C@@H]2CN1CCCC1"
cat = "inactive"


*Q* Assay result, entry COc1ccc(-c2cc([C@H]3CN4CC[C@H]3C[C@@H]4CNC(=O)C3CC3)n(C)n2)cc1OC — outcome?
*A* inactive

*Q* Assay result, entry COc1ccc(-c2cc([C@H]3CN4CC[C@H]3C[C@@H]4CNC(=O)c3ccccc3)n(C)n2)cc1OC — outcome?
*A* inactive
